viability at 24 h overview
- assayProcedure: Cytotoxicity against LPS-treated mouse BV2 cells assessed as cell viability after 24 hrs by SRB assay relative to control
- Format: cell-based, BV-2
- Set-up: concentration or dose not given beside the values
- conditionDescription: read-out: Activity
// note: answer is a bare numeric in %

Look over these answered cases.
compound | valueUnits | viability at 24 h
Cc1cc(Cl)ccc1OC(=O)[C@@H]1CCC(=O)N1 | % | 91.1
C#CCNC(=O)[C@@H]1CCC(=O)N1 | % | 89.5
C=CCNC(=O)[C@@H]1CCC(=O)N1 | % | 95.4
O=c1c(O)c(-c2ccc(O)c(O)c2)oc2cc(O)cc(O)c12 | % | 99.5

Alright, here's another compound for you.
viability at 24 h for O=C1CC[C@@H](C(=O)Oc2ccc(O)cc2)N1 is 92.6

====

- Test system: Bacillus thuringiensis
- assayProcedure: Antibacterial activity against Bacillus thuringiensis at 2 mg/ml after 4 to 10 hrs by filter paper dispersion method
- Type: functional
- conditionDescription: read-out: IZ
measuredProperty: zone of inhibition at 2000 µg/mL (mm)
Form entry: value (mm) — number only.

Worked cases, answers included:
molecule | experimentalTarget | reportedMeasurement
C#CCNC(=O)[C@@H]1CCC(=O)N1 | Bacillus thuringiensis | 9
Nc1ccccc1NC(=O)[C@@H]1CCC(=O)N1 | Bacillus thuringiensis | 11.5
CNC(=O)[C@@H]1CCC(=O)N1 | Bacillus thuringiensis | 12
CC(C)NC(=O)[C@@H]1CCC(=O)N1 | Bacillus thuringiensis | 10
O=C1CC[C@@H](C(=O)Nc2ccc(C(F)(F)F)cc2)N1 | Bacillus thuringiensis | 13

# molecule CC1(C)S[C@@H]2[C@H](NC(=O)Cc3ccccc3)C(=O)N2[C@H]1C(=O)O [PENICILLIN G SODIUM] ; its zone of inhibition at 2000 µg/mL = 27

The recorded zone of inhibition at 2000 µg/mL for entry C=CCNC(=O)[C@@H]1CCC(=O)N1 equals 11.5

====

- Tested on: Phytophthora infestans
- assayProcedure: Antifungal activity against Phytophthora infestans assessed as inhibition of zoospore release at 100 ug/ml after 4 hrs relative to control
- Type: functional
measuredProperty: inhibition at 100 µg/mL (%)
The answer is to be given in %; state only the numeric part.

compound | inhibition at 100 µg/mL (%)
CCCCOC(=O)[C@@H]1CCC(=O)N1 | 99
O=C1CC[C@@H](C(=O)Oc2ccccc2Cl)N1 | 98.4
CCOC(=O)[C@@H]1CCC(=O)N1 | 95.8
CCOC(=O)c1ccccc1OC(=O)[C@@H]1CCC(=O)N1 | 98.2

In plain terms, CN(C)C(=O)[C@@H]1CCC(=O)N1 has a documented inhibition at 100 µg/mL of 44.3

The compound identified as N#Cc1ccccc1OC(=O)[C@@H]1CCC(=O)N1 registered its inhibition at 100 µg/mL at 98.3

// inhibition at 100 µg/mL value for CC(C)OC(=O)[C@@H]1CCC(=O)N1 : 36.5

====

- Test system: Phytophthora infestans
- assayProcedure: Antifungal activity against Phytophthora infestans assessed as inhibition of zoospore release at 100 ug/ml after 4 hrs relative to control
- Type: functional
measuredProperty: inhibition at 100 µg/mL (%)
Note: unit % is implicit; provide only the numeric part.

Solved cases (5 shown):
compound | inhibition at 100 µg/mL [%]
CCN(CC)C(=O)[C@@H]1CCC(=O)N1 | 35.8
CO/C=C(/C(=O)OC)c1ccccc1Oc1cc(Oc2ccccc2C#N)ncn1 | 99.2
O=C1CC[C@@H](C(=O)Oc2ccccc2)N1 | 98.3
C=CCNC(=O)[C@@H]1CCC(=O)N1 | 49.3
Cc1ccccc1OC(=O)[C@@H]1CCC(=O)N1 | 48.6

Hey, Phytophthora infestans data for Cc1cc(Cl)ccc1OC(=O)[C@@H]1CCC(=O)N1 : inhibition at 100 µg/mL came out at 39.8

Recorded inhibition at 100 µg/mL for COC(=O)c1ccccc1NC(=O)[C@@H]1CCC(=O)N1 on Phytophthora infestans was 2.37

Query O=C1CC[C@@H](C(=O)Oc2ccccc2[N+](=O)[O-])N1 on Phytophthora infestans; inhibition at 100 µg/mL returned: 96.3

Tested on Phytophthora infestans: C=CCOC(=O)[C@@H]1CCC(=O)N1 . Observed inhibition at 100 µg/mL: 84.2

====

# zone of inhibition at 2000 µg/mL values compiled below
- System: Bacillus thuringiensis
- assayProcedure: Antibacterial activity against Bacillus thuringiensis at 2 mg/ml after 4 to 10 hrs by filter paper dispersion method
- Assay type: functional
- conditionDescription: read-out: IZ
Give me the value, and tack the unit on after it.

# annotated cases, reported zone of inhibition at 2000 µg/mL shown
compound | zone of inhibition at 2000 µg/mL
CCCCNC(=O)[C@@H]1CCC(=O)N1 | 7.5 mm
NNC(=O)[C@@H]1CCC(=O)N1 | 14 mm
N#Cc1ccccc1OC(=O)[C@@H]1CCC(=O)N1 | 14 mm

For record O=C1CC[C@@H](C(=O)NCCc2c[nH]c3ccccc23)N1 the listed zone of inhibition at 2000 µg/mL is 12 mm

Entry CCOC(=O)c1ccccc1OC(=O)[C@@H]1CCC(=O)N1 ; zone of inhibition at 2000 µg/mL = 13 mm

====

- System: Phytophthora infestans
- assayProcedure: Antifungal activity against Phytophthora infestans assessed as inhibition of zoospore release at 100 ug/ml after 4 hrs relative to control
- Type: functional
Recorded inhibition at 100 µg/mL by entry
Field format: number, assumed %, no unit text.

compound | inhibition at 100 µg/mL (%)
Cc1ccc(C(C)C)c(OC(=O)[C@@H]2CCC(=O)N2)c1 | 13.2
CC(C)COC(=O)[C@@H]1CCC(=O)N1 | 64.9
COC(=O)[C@@H]1CCC(=O)N1 | 26.1
CCCCNC(=O)[C@@H]1CCC(=O)N1 | 17.8
O=C1CC[C@@H](C(=O)Oc2cccc3ccccc23)N1 | 98.5

Okay, now this compound:
// NC(=O)[C@@H]1CCC(=O)N1 : inhibition at 100 µg/mL value = 13.6

====

- System: Phytophthora infestans
- assayProcedure: Antifungal activity against Phytophthora infestans assessed as inhibition of zoospore release at 100 ug/ml after 4 hrs relative to control
- Format: functional
Mark no for inhibition at 100 µg/mL values under 50%, and yes for everything at or above.

As a guide, the following entries are already answered.
compound | experimentalTarget | classAssignment
O=C1CC[C@@H](C(=O)Nc2ccccc2O)N1 | Phytophthora infestans | no
CCCOC(=O)[C@@H]1CCC(=O)N1 | Phytophthora infestans | yes
O=C1CC[C@@H](C(=O)Nc2ccc([N+](=O)[O-])cc2)N1 | Phytophthora infestans | no
O=C1CC[C@@H](C(=O)NCCc2c[nH]c3ccccc23)N1 | Phytophthora infestans | no
O=C1CC[C@@H](C(=O)O)N1 | Phytophthora infestans | yes
O=C1CC[C@@H](C(=O)Oc2ccc(Cl)cc2)N1 | Phytophthora infestans | yes

Continue with the compound presented below.
Q: Form field: inhibition at 100 µg/mL at least 50%? Entry: CNC(=O)[C@@H]1CCC(=O)N1
A: no

====

- Test system: Bacillus thuringiensis
- assayProcedure: Antibacterial activity against Bacillus thuringiensis at 2 mg/ml after 4 to 10 hrs by filter paper dispersion method
- Assay type: functional
- conditionDescription: read-out: IZ
measuredProperty: zone of inhibition at 2000 µg/mL (mm)
Answer format: numeric, mm implied, no suffix.

compound | reportedMeasurement
C=CCOC(=O)[C@@H]1CCC(=O)N1 | 12
NC(=O)[C@@H]1CCC(=O)N1 | 8

Consider now this further compound.
// zone of inhibition at 2000 µg/mL value for O=C1CC[C@@H](C(=O)O)N1 : 17.5

Hey, just so you know, these numbers are from ChEMBL document CHEMBL4229537.
